- System: L. donovani promastigotes
- assay_overview: Antileishmanial Alamar Blue assay on promastigotes
- Assay type: cell-based, Leishmania donovani
- condition_notes: L. donovani; ratio of molar IC50 to Pentamidine
reported_endpoint: X more potent than Pentamidine

{"compound": "c1c(CN2CCNCCN3CCN(CC3)CC2)cc(CN2CCNCCN3CCN(CC3)CC2)cc1CN1CCNCCN2CCN(CC2)CC1 [CDG29, tris-SB-cyclens]", "test_target": "L. donovani promastigotes", "reported_endpoint": "X more potent than Pentamidine", "result_value": 0.32}
{"compound": "c1ccc(CN2CCN3CCN(CC2)CCN(Cc2ccccc2)CC3)cc1 [ANC14, Bn2Bcyclen]", "test_target": "L. donovani promastigotes", "reported_endpoint": "X more potent than Pentamidine", "result_value": 0.53}
{"compound": "CN1CCN2CCN(CC1)CCN(Cc1cc(CN3CCN4CCN(C)CCN(CC4)CC3)cc(CN3CCN4CCN(C)CCN(CC4)CC3)c1)CC2 [BNS017, tris-CB-cyclens]", "test_target": "L. donovani promastigotes", "reported_endpoint": "X more potent than Pentamidine", "result_value": 0.16}
{"compound": "c1cc(CN2CCNCCCN3CCN(CC3)CC2)ccc1CN1CCNCCCN2CCN(CC2)CC1 [OB45, p-SB-Homocyclens]", "test_target": "L. donovani promastigotes", "reported_endpoint": "X more potent than Pentamidine", "result_value": 0.16}
